Organism: Homo sapiens
Assay: Inhibition of Wnt/beta-catenin signaling pathway in human HCT116 whole cell lysate harboring beta-catenin mutation assessed as reduction in c-Myc protein expression at 5 uM after 18 hrs by Western blot analysis relative to control
Format: subcellular
PARAMETER MEASURED: inhibition (%)

                                   molecule  parameter_measured  endpoint_result
0  O=[N+]([O-])c1ccc(-c2nnc(-c3cc(Cl)ccc3O)[nH]2)c(Cl)c1          inhibition                3
1  O=C(Nc1ccc([N+](=O)[O-])cc1Cl)c1cc(Cl)ccc1O [NICLOSAMIDE]          inhibition                1
2  O=[N+]([O-])c1ccc(-c2nnc(-c3cc(Cl)ccc3O)[nH]2)cc1          inhibition                2
3  Oc1ccc(Cl)cc1-c1nnc(-c2ccc(C(F)(F)F)cc2)[nH]1          inhibition                3

Source of measurements: ChEMBL document CHEMBL4371061
